Value source: patent US6525001B1

Test system: bamyardgrass (Echinochloa crus-galli)
Protocol details: Test B flood test
Type: in vivo
Test conditions: Rate 250 g/ha, Postemergence (flood test species)
Procedure: At the same time, these crop and weed species were also treated with postemergence applications of test chemicals formulated in the same manner. Plants ranged in height from 2 to 18 cm (1- to 4-leaf stage) for postemergence treatments. […] Treated plants and controls were maintained in a greenhouse for twelve to sixteen days, after which all species were compared to controls and visually evaluated. […]
Measured metric: Plant response rating, Barnyardgrass
One number for each entry.

Record excerpt, results attached:
1. Cc1cnc(-n2cnc(C(F)(F)F)c2)nc1Cc1cccc(C(F)(F)F)c1 | 4
2. Cc1cnc(-c2ccc(OC(F)(F)F)cc2)nc1Cc1cccc(C(F)(F)F)c1 | 4
3. Cc1cnc(-c2ccc(Cl)cc2F)nc1Cc1cccc(C#N)c1 | 2
4. O=C(c1cccc(C(F)(F)F)c1)c1ccnc(-c2ccc(F)cc2F)n1 | 0
5. Cc1cnc(-n2ccc(C(F)(F)F)n2)nc1C(=O)c1ccc(C(F)(F)F)cc1 | 0
6. O=C(c1cccc(C(F)(F)F)c1)c1ccnc(-n2ccc(C(F)(F)F)n2)n1 | 0

Could you now look at the following compound, please?
# Plant response rating, Barnyardgrass measured on bamyardgrass (Echinochloa crus-galli) for item Cc1cnc(-c2ccc(F)cc2F)nc1Cc1cccc(C#N)c1 = 1

----------
Test system: rape (Brassica napus)
Protocol details: Test B pre-/postemergence
Type: in vivo
Set-up: key: 0 is no effect; 10 is complete control
Test conditions: Rate 500 g/ha, Preemergence
Protocol: […] At the same time, these crop and weed species were also treated with postemergence applications of test chemicals formulated in the same manner. […] Treated plants and controls were maintained in a greenhouse for twelve to sixteen days, after which all species were compared to controls and visually evaluated. […]
Measured metric: Plant response rating, Rape
Give bare numbers.

1) Cc1cnc(-n2ccc(C(F)(F)F)n2)nc1Cn1ccc(C(F)(F)F)n1 | 10

Batch lookup, Plant response rating, Rape per entry.
1. Cc1cnc(-c2ccc(C(F)(F)F)cc2)nc1Cn1ccc(C(F)(F)C(F)(F)F)n1
2. Cc1cnc(-c2ccc(C(F)(F)F)cc2)nc1C(=O)c1cccc(OC(F)(F)F)c1
3. Cc1cnc(-c2ccc(C(F)(F)F)cc2)nc1Cn1cnc(C(F)(F)F)n1
4. Cc1cnc(-c2ccc(C(F)(F)F)cc2)nc1Cn1ccc(C(F)(F)F)n1

1. 8
2. 4
3. 10
4. 10

----------
Tested on: blackgrass (Alopecurus myosuroides)
Protocol details: Test B pre-/postemergence
Type: in vivo
Test conditions: Rate 250 g/ha, Postemergence
Please go through the items and note down their Plant response rating, Blackgrass.
Give bare numbers.

1) Cc1cnc(-c2ccc(F)c(Cl)c2)nc1Cc1cccc(C#N)c1 [Compound 40] | 2
2) Cc1cnc(-n2ccc(C(F)(F)C(F)(F)F)n2)nc1C(=O)c1cccc(OC(F)(F)F)c1 [Compound 62] | 2

Could you now look at the following compound, please?
What the record says about COc1cnc(-n2ccc(C(F)(F)F)n2)nc1C(=O)c1cccc(C(F)(F)F)c1 [Compound 60] : Plant response rating, Blackgrass is 2

----------
Please go through the items and note down their Plant response rating, Bedstraw.
Test system: bedstraw (Galium aparine)
Protocol details: Test B pre-/postemergence
Assay type: in vivo
Set-up: key: 0 is no effect; 10 is complete control
Test conditions: Rate 250 g/ha, Postemergence
Numbers only.

Record excerpt, results attached:
1. Cc1cnc(-n2cnc(C(F)(F)F)n2)nc1Cc1cccc(C(F)(F)F)c1 [Compound 43] | 10
2. CCc1cnc(-n2ccc(C(F)(F)F)n2)nc1C(=O)c1cccc(C#N)c1 [Compound 72] | 4
3. Cc1cnc(-c2ccc(Cl)c(Cl)c2)nc1Cc1cccc(C(F)(F)F)c1 [Compound 27] | 9
4. Cc1cnc(-c2ccc(F)c(Cl)c2)nc1Cc1cccc(C(F)(F)F)c1 [Compound 25] | 10

Could you now look at the following molecule, please?
What the record says about Cc1cnc(-c2ccc(C#N)cc2)nc1Cc1cccc(C(F)(F)F)c1 [Compound 30] : Plant response rating, Bedstraw is 6

----------
Tested on: blackgrass (Alopecurus myosuroides)
Protocol details: Test B pre-/postemergence
Assay type: in vivo
Test conditions: Rate 125 g/ha, Postemergence
Measured metric: Plant response rating, Blackgrass
Numbers only.

1) Cc1cnc(-c2ccc(C(F)(F)F)cc2)nc1Cn1ccc(C(F)(F)F)n1 | 8
2) Cc1cnc(-c2ccc(C#N)cc2)nc1Cc1cccc(C(F)(F)F)c1 | 1
3) Cc1cnc(-c2ccc(Cl)cc2)nc1Cn1ccc(C(F)(F)F)n1 | 2
4) COc1cnc(-c2ccc(C(F)(F)F)cc2)nc1Cc1cccc(C(F)(F)F)c1 | 7

Could you now look at the following compound, please?
What the record says about Cc1cnc(-c2ccc(F)c(Cl)c2)nc1Cc1cccc(C(F)(F)F)c1 : Plant response rating, Blackgrass is 4

----------
Please go through the items and note down their Redroot pigweed plant response rating.
Test system: pigweed (Amaranthus retroflexus)
Protocol details: Test B pre-/postemergence
Type: in vivo
Test conditions: Rate 125 g/ha, Preemergence
Numbers only.

Record excerpt, results attached:
1) Cc1cnc(-c2ccc(Cl)cc2)nc1Cn1ccc(C(F)(F)F)n1 [Compound 6] | 3
2) Cc1cnc(-c2ccc(C#N)cc2)nc1Cc1cccc(C(F)(F)F)c1 [Compound 30] | 7
3) Cc1cnc(-c2ccc(OC(F)(F)F)cc2)nc1Cc1cccc(C(F)(F)F)c1 [Compound 16] | 0

Batch lookup, Redroot pigweed plant response rating per entry.
1. Cc1cnc(-c2ccc(C(F)(F)F)cc2)nc1Cn1nc(C(F)(F)F)cc1C [Compound 13]
2. Cc1cnc(-c2ccc(C(F)(F)F)cc2)nc1C(Cl)c1cccc(C(F)(F)F)c1 (racemic) [Compound 21]

9
8

----------
System: purple nutsedge (Cyperus rotundus)
Protocol details: Test B pre-/postemergence
Assay type: in vivo
Test conditions: Rate 125 g/ha, Postemergence
Measured metric: Nutsedge plant response rating
Answers are plain numbers.

Record excerpt, results attached:
1) Cc1cnc(-n2ccc(C(F)(F)F)n2)nc1C(=O)c1cccc(OC(F)(F)F)c1 [Compound 66] | 1
2) Cc1cnc(-c2ccc(C#N)cc2)nc1Cc1cccc(C(F)(F)F)c1 [Compound 30] | 0

What the record says about Cc1cnc(-n2ccc(C(F)(F)C(F)(F)F)n2)nc1C(=O)c1cccc(OC(F)(F)F)c1 [Compound 62] : Nutsedge plant response rating is 0

----------
Test system: broadleaf signalgrass (Brachiaria decumbens)
Protocol details: Test B pre-/postemergence
Assay type: in vivo
Test conditions: Rate 250 g/ha, Postemergence as printed in head r139 (second section for compounds 26-50)
Please go through the items and note down their Plant response rating, B. signalgrass.
Answers are plain numbers.

Record excerpt, results attached:
1. Cc1cnc(-c2ccc(F)cc2F)nc1Cc1cccc(C(F)(F)F)c1 | 9
2. Cc1cnc(-c2ccccc2F)nc1Cc1cccc(C(F)(F)F)c1 | 1
3. Cc1cnc(-c2ccc(Cl)cc2)nc1Cc1cccc(C(F)(F)F)c1 | 9

What the record says about Cc1cnc(-c2ccc(Cl)c(Cl)c2)nc1Cc1cccc(C(F)(F)F)c1 : Plant response rating, B. signalgrass is 3

----------
Please go through the items and note down their Plant response rating, Crabgrass.
Test system: crabgrass (Digitaria sanguinalis)
Protocol details: Test B pre-/postemergence
Format: in vivo
Test conditions: Rate 250 g/ha, Preemergence
Give bare numbers.

Record excerpt, results attached:
1) Cc1cnc(-c2ccc(C(F)(F)F)cc2)nc1Cn1cnc(C(F)(F)F)c1 | 9
2) Cc1cnc(-c2ccc(C(F)(F)F)cc2)nc1Cn1cnc(C(F)(F)F)n1 | 9

What the record says about Cc1cnc(-c2ccc(C(F)(F)F)cc2)nc1C(C#N)c1cccc(C(F)(F)F)c1 (racemic) : Plant response rating, Crabgrass is 9

----------
Tested on: giant foxtail (Setaria faberii)
Protocol details: Test B pre-/postemergence
Format: in vivo
Parameters: key: 0 is no effect; 10 is complete control
Test conditions: Rate 62 g/ha, Preemergence
Please go through the items and note down their Giant foxtail plant response rating.
One number for each entry.

1) Cc1cnc(-c2ccc(Cl)cc2F)nc1Cc1cccc(C#N)c1 [Compound 35] | 0
2) Cc1cnc(-c2ccc(C(F)(F)F)cc2)nc1Cn1cnc(C(F)(F)F)n1 [Compound 11] | 6
3) Cc1cnc(-n2ccc(C(F)(F)F)n2)nc1Cc1cccc(C(F)(F)F)c1 [Example 2] | 10
4) Cc1cnc(-c2ccc(C(F)(F)F)cc2)nc1Cc1cccc(C#N)c1 [Compound 32] | 1
5) COc1cnc(-c2ccc(C(F)(F)F)cc2)nc1Cc1cccc(C(F)(F)F)c1 [Compound 23] | 10
6) Cc1cnc(-c2ccc(C(F)(F)F)cc2)nc1Cn1cc(I)cn1 [Compound 12] | 5

Could you now look at the following compound, please?
What the record says about Cc1cnc(-c2ccc(Cl)cc2F)nc1Cc1cccc(C(F)(F)F)c1 [Compound 29] : Giant foxtail plant response rating is 1

----------
Test system: blackgrass (Alopecurus myosuroides)
Protocol details: Test B pre-/postemergence
Format: in vivo
Parameters: key: 0 is no effect; 10 is complete control
Test conditions: Rate 62 g/ha, Postemergence
Simple rule here: Plant response rating, Blackgrass less than 2 is t, otherwise f.

Please review the following examples before continuing.
1. COc1cnc(-n2ccc(C(F)(F)F)n2)nc1Cc1cccc(C(F)(F)F)c1 | t
2. Cc1cnc(-c2ccc(C(F)(F)F)cc2)nc1Cn1nc(C(F)(F)F)cc1C | f
3. Cc1cnc(-c2ccc(F)cc2F)nc1Cc1cccc(C#N)c1 | t

Below 2 on Plant response rating, Blackgrass? Entry Cc1cnc(-c2ccc(OC(F)(F)F)cc2)nc1Cc1cccc(C(F)(F)F)c1
t

Below 2 on Plant response rating, Blackgrass? Entry Cc1cnc(-n2cnc(C(F)(F)F)c2)nc1Cc1cccc(C(F)(F)F)c1
f

Below 2 on Plant response rating, Blackgrass? Entry CCc1cnc(-n2ccc(C(F)(F)F)n2)nc1Cc1cccc(C(F)(F)F)c1
f

Below 2 on Plant response rating, Blackgrass? Entry CCc1cnc(-c2ccc(C(F)(F)F)cc2)nc1Cc1cccc(C(F)(F)F)c1
f

Below 2 on Plant response rating, Blackgrass? Entry Cc1cnc(-c2ccc(C#N)cc2)nc1Cc1cccc(C(F)(F)F)c1
t

Below 2 on Plant response rating, Blackgrass? Entry Cc1cnc(-c2ccc(Cl)cc2)nc1Cc1cccc(C(F)(F)F)c1
f
